Would you mind telling me the reported Mean % WT Binding of each entry?
- TARGET OR TEST SYSTEM: human CD33 variant Y50N (human, UniProt P20138 18-364)
- Sequence (P20138 18-364 Y50N limits assumed): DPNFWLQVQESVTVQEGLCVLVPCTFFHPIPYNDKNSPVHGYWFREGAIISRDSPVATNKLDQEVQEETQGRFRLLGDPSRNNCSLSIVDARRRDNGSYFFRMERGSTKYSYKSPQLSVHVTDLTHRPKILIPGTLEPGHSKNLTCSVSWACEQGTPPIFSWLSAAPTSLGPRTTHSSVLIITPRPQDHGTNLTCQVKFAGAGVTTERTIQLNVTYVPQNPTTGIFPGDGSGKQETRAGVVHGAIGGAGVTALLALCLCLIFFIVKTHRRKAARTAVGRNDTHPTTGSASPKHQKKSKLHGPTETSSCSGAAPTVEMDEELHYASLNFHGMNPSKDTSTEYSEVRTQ
- METHOD: flow cytometry, IgG on cells expressing the mutant

Worked examples, 3 binders total:
BINDER: Refmab #2 (antibody, human IgG1, V domains shown, Tested in IgG format; human IgG1 Fc silent (PG-LALA)) VH: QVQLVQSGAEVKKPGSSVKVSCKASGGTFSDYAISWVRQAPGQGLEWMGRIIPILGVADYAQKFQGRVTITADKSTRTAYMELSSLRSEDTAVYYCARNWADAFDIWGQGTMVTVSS VL: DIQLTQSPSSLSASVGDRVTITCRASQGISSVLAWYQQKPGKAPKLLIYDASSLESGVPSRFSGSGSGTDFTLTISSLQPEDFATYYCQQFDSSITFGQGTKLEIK
Mean % WT Binding: 108 % of WT
--
BINDER: Refmab #1 (antibody, human IgG1, V domains shown, Tested in IgG format; human IgG1 (Absolute Antibody hP67.6, Cat. No. Ab00283-10.0); also called hP67.6) VH: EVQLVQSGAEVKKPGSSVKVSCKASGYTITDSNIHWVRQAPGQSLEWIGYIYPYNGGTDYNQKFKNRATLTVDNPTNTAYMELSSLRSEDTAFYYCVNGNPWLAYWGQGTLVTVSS VL: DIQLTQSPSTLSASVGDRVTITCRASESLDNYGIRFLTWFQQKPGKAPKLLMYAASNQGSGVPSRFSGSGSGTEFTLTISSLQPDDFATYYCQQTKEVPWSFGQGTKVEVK
Mean % WT Binding: 96.3 % of WT
--
BINDER: Refmab #3 (antibody, human IgG1, V domains shown, Tested in IgG format; human IgG1 Fc silent (PG-LALA)) VH: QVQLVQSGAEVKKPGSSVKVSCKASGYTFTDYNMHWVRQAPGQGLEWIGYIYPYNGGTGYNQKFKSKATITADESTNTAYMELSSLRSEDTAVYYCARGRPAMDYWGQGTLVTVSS VL: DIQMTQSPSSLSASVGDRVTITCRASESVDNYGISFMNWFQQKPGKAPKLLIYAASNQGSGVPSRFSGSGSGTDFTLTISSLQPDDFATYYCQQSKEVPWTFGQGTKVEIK
Mean % WT Binding: 92.4 % of WT

Could you now consider this next binder?
Item: Refmab #4 (antibody, human IgG1, V domains shown, Tested in IgG format; human IgG1 Fc silent (PG-LALA)) VH: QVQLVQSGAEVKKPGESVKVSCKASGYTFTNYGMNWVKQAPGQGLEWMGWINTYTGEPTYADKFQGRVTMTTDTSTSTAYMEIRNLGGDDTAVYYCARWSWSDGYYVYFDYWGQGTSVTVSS VL: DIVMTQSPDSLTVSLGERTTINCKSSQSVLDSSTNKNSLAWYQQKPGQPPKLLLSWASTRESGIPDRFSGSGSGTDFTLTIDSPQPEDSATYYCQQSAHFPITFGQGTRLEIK | Mean % WT Binding: 2.3 % of WT
